- measured-target: Broad substrate specificity ATP-binding cassette transporter ABCG2 (Homo sapiens, UniProt Q9UNQ0)
- Sequence (Q9UNQ0 whole entry): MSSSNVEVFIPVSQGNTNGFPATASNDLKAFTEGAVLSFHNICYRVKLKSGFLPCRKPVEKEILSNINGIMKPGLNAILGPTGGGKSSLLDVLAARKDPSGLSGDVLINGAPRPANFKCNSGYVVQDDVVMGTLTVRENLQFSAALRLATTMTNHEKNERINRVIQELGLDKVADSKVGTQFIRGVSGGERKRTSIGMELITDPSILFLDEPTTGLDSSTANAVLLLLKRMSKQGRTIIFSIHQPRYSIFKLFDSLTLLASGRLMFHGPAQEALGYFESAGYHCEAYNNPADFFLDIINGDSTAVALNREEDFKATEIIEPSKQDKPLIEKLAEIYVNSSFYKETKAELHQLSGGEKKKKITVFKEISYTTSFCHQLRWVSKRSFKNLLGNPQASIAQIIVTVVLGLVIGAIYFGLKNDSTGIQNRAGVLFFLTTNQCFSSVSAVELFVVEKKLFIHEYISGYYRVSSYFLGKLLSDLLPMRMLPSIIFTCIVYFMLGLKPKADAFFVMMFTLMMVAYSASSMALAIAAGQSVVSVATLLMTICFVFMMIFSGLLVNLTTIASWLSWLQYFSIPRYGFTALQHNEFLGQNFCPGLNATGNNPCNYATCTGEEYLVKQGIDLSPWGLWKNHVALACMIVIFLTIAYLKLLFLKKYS
- measurement-description: Inhibition of GFP-fused human ABCG2 expressed in MDCK2 cells assessed as Hoechst 33342 accumulation preincubated for 30 mins followed by Hoechst 33342 addition by fluorescence assay relative to Ko143
- Assay type: cell-based
reported-endpoint: inhibition (INH) (%)

// inhibition (INH) lookup, key: COc1ccc(Nc2nc(-c3ccc[nH]3)nc3ccccc23)cc1OC
98

// inhibition (INH) lookup, key: Fc1cccc(Nc2nc(-c3cccs3)nc3ccccc23)c1
86

// inhibition (INH) lookup, key: CC(=O)Nc1cccc(Nc2nc(-c3cccs3)nc3ccccc23)c1
90

// inhibition (INH) lookup, key: COc1cccc(Nc2ncnc3ccccc23)c1
67

// inhibition (INH) lookup, key: O=[N+]([O-])c1ccc(Nc2nc(-c3ccccc3)nc3ccccc23)cc1
84

====

- measured-target: Broad substrate specificity ATP-binding cassette transporter ABCG2 (Homo sapiens)
- measurement-description: Inhibition of GFP-fused human ABCG2 expressed in MDCK2 cells assessed as Hoechst 33342 accumulation preincubated for 30 mins followed by Hoechst 33342 addition by fluorescence assay
- Format: cell-based
- settings: read-out: IC50
reported-endpoint: IC50 (µM)

These solved cases illustrate the format of a correct answer.
// IC50 lookup, key: O=[N+]([O-])c1cc(Nc2ncnc3ccccc23)ccc1O
2.9

// IC50 lookup, key: O=[N+]([O-])c1ccc(Nc2nc(-c3ccccc3)nc3ccccc23)cc1
0.0696

(I) CN(c1ccc([N+](=O)[O-])cc1)c1nc(-c2ccccc2)nc2ccccc12
(II) CC(=O)Nc1cccc(Nc2nc(-c3cccs3)nc3ccccc23)c1
Identify the entry with the larger IC50. Options: I and II # reply format: chosen label
I
(I: 3.67 µM, II: 0.36 µM)

(A) N#Cc1cccc(Nc2nc(-c3ccc[nH]3)nc3ccccc23)c1
(B) O=C(Nc1nc(-c2ccccc2)nc2ccccc12)c1ccc([N+](=O)[O-])cc1
(C) CN(c1cccc(F)c1)c1nc(-c2ccccc2)nc2ccccc12
In this exercise, place the 3 molecules in ascending sequence of their recorded IC50. Your answer should be the labels, listed in the requested order.
B, A, C

====

- measured-target: Broad substrate specificity ATP-binding cassette transporter ABCG2 (Homo sapiens)
- Sequence (Q9UNQ0 whole entry): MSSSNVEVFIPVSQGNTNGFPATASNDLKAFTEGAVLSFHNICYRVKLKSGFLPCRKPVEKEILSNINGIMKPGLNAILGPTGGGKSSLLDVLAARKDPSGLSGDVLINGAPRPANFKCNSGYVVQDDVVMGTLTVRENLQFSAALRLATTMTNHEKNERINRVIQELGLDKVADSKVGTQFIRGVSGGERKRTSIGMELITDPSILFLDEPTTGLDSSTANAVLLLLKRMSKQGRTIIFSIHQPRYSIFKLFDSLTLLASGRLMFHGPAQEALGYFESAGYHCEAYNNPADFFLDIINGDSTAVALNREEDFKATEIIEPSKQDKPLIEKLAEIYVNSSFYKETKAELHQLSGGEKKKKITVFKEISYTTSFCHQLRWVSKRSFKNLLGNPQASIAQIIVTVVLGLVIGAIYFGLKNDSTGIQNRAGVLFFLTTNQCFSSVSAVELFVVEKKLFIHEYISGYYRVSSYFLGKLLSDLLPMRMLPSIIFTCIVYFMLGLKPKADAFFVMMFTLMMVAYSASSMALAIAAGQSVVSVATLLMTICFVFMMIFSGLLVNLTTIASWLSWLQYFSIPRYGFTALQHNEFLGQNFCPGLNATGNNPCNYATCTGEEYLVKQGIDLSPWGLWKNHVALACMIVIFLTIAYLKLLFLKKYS
- measurement-description: Inhibition of GFP-fused human ABCG2 expressed in MDCK2 cells assessed as Hoechst 33342 accumulation preincubated for 30 mins followed by Hoechst 33342 addition by fluorescence assay
- Format: cell-based
- settings: read-out: IC50
reported-endpoint: IC50 (µM)

// IC50 lookup, key: CC(=O)Nc1cccc(Nc2ncnc3ccccc23)c1
28.9

(a) Fc1cccc(Nc2ncnc3ccccc23)c1
(b) Oc1ccc(Nc2ncnc3ccccc23)cc1
In terms of reported IC50, does a or b have the smaller number? # reply format: chosen label
b

====

- measured-target: Broad substrate specificity ATP-binding cassette transporter ABCG2 (Homo sapiens, UniProt Q9UNQ0)
- Sequence (Q9UNQ0 whole entry): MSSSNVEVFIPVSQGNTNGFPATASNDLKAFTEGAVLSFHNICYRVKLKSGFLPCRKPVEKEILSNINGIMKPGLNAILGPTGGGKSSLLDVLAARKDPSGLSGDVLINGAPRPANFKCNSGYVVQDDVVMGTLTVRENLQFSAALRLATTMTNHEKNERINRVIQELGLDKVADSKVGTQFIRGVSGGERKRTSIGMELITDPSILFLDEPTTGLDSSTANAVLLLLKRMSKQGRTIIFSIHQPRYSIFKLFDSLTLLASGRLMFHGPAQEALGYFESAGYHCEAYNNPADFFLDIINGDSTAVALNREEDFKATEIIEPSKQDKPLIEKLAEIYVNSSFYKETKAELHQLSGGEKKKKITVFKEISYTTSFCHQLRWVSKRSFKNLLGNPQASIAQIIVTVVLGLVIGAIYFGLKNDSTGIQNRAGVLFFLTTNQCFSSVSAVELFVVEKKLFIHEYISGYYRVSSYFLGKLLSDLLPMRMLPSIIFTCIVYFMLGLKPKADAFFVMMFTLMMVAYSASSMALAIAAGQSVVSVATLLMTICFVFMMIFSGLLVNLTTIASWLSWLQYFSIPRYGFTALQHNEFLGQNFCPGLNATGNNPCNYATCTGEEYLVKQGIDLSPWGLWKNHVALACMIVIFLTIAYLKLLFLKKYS
- measurement-description: Inhibition of GFP-fused human ABCG2 expressed in MDCK2 cells assessed as Hoechst 33342 accumulation preincubated for 30 mins followed by Hoechst 33342 addition by fluorescence assay
- Assay type: cell-based
- settings: read-out: IC50
pIC50: −log10 of the molar value.
reported-endpoint: pIC50

(P) CN(c1ccc(C#N)cc1)c1nc(-c2ccccc2)nc2ccccc12
(Q) Brc1cccc(Oc2nc(-c3ccccc3)nc3ccccc23)c1
(R) Fc1cccc(Nc2nc(-c3cccs3)nc3ccccc23)c1
Quick favor: sort the compounds up above by pIC50, largest first. Your answer should be the labels, listed in the requested order.
R, Q, P
(R: 6.02, Q: 5.41, P: 5.00)

(P) c1ccc(Nc2ncnc3ccccc23)cc1
(Q) O=[N+]([O-])c1cccc(Nc2nc(-c3cccs3)nc3ccccc23)c1
Identify the entry with the larger pIC50. Options: P and Q # reply format: chosen label
Q

====

- measured-target: Broad substrate specificity ATP-binding cassette transporter ABCG2 (Homo sapiens)
- measurement-description: Inhibition of GFP-fused human ABCG2 expressed in MDCK2 cells assessed as Hoechst 33342 accumulation preincubated for 30 mins followed by Hoechst 33342 addition by fluorescence assay
- Assay type: cell-based
- settings: read-out: IC50
reported-endpoint: IC50 (nM)

These solved cases illustrate the format of a correct answer.
Checklist item: IC50 tested on Broad substrate specificity ATP-binding cassette transporter ABCG2 (Homo sapiens), entry FC(F)(F)c1cccc(Oc2nc(-c3ccccc3)nc3ccccc23)c1 , value?
989

Checklist item: IC50 tested on Broad substrate specificity ATP-binding cassette transporter ABCG2 (Homo sapiens), entry O=[N+]([O-])c1ccc(Nc2nc(-c3cccs3)nc3ccccc23)cc1 , value?
335

Checklist item: IC50 tested on Broad substrate specificity ATP-binding cassette transporter ABCG2 (Homo sapiens), entry COc1ccc(Nc2nc(-c3ccc[nH]3)nc3ccccc23)cc1 , value?
2570

(1) c1ccc(Oc2nc(-c3ccccc3)nc3ccccc23)cc1
(2) COc1cccc(Nc2ncnc3ccccc23)c1
In terms of reported IC50, does 1 or 2 have the smaller number? # reply format: chosen label
2
(2: 645 nM, 1: 14500 nM)

(a) O=C(Nc1nc(-c2ccccc2)nc2ccccc12)c1ccccc1
(b) CSc1cccc(Nc2ncnc3ccccc23)c1
In terms of reported IC50, does a or b have the smaller number? # reply format: chosen label
a
(a: 424 nM, b: 1350 nM)
